All figures here come from PubChem BioAssay (Tox21).

biological target: Nuclear receptor subfamily 1 group I member 2 (Rattus norvegicus); test: Rat pregnane X receptor (rPXR) activation by small molecules, qHTS assay (AID 1346983); settings: rPXR luciferase reporter cells, One-Glo luminescence, 24 h; stronger effect = higher value; also: % is scaled to controls: 0 for no effect and ±100 for the full control effect; nearly all actives have a fitted effect of over 20% in size
Records with an inconclusive call do not appear.
Would you kindly list max activation for each of these compounds?
Just the number in %, nothing appended.

max activation reported for this compound Cc1ncc2n1-c1ccc(Cl)cc1C(c1ccccc1F)=NC2 : 11.3

What the record says about C#C[C@]1(O)C=C[C@H]2[C@@H]3CCC4=CC(=O)CC[C@@H]4[C@H]3CC[C@@]21CC : max activation is -1.56

The recorded max activation for entry CCS(=O)(=O)C(C)(C)S(=O)(=O)CC equals -0.861

---

experiment: qHTS assay for identifying genotoxic compounds that show differential cytotoxicity against isogenic chicken DT40 cell lines with known DNA damage response pathways - Rev3 mutant cell line (AID 743014); details: chicken DT40 Rev3-/- viability, CellTiter-Glo, 40 h; series mostly up to 68.4 µM; also: nearly all actives have a fitted effect of over 55% in size
Results filed as inconclusive are left out. Calls of active or inactive are those of the source. Calls follow the shape of the dose curve; as a rule, active = well fitted cell-killing curve with a large enough effect in the repeat runs; inconclusive = weak or mixed curves, or effect the other way; inactive = no such curve, though single readings can be large or run the other way.
Return exactly one item of label 1 (active), label 0 (inactive)

Assay outcome for c1cc[c]([Hg][c]2ccccc2)cc1 : what was it?
label 1

For this molecule, state the assay outcome: N#CC(Cl)(Cl)Cl
label 0

// outcome(item) with item = ClCC(Cl)Cl
label 0

Query: recorded result category for CC(C)CP(=S)(S)CC(C)C in this test
label 1

GET /call?item= BrCCCCCCBr returns the recorded outcome of this test.
label 0

Which outcome did this test record for the molecule CC(C)NCC(O)c1ccc(N)c(C#N)c1 (stereo unspecified) ?
label 0

Which result was noted for this molecule in the test: CCN(CC)c1nc(C)cc(OP(=S)(OC)OC)n1
label 1

In this assay, the call recorded for O=NN1CCN(N=O)CC1 was what?
label 0

How was CNNC classified in this test?
label 0

Short answer needed: outcome of this test for CCCCOC(=O)c1ccccc1N ?
label 0

What outcome does the record of this test show for COc1cc(C[C@@H](C)N)c(OC)cc1C ?
label 0

I'd appreciate the recorded outcome for OCCBr from this test.
label 1

Could you please tell me the result logged for CC(N)=S in this assay?
label 0

// return assay outcome for O=C1OC(=O)C2C1C1(Cl)C(Cl)=C(Cl)C2(Cl)C1(Cl)Cl (stereo unspecified)
label 0

For CN/C(=N\[N+](=O)[O-])NCC1CCOC1 (stereo unspecified) , what call appears in the results of this test?
label 0

Outcome logged for C[C@@H]1CN(C2CCC(C#N)(c3ccc(F)cc3)CC2)CC[C@]1(C(=O)O)c1ccccc1 (stereo partly specified) in this assay:
label 0

Write down the call the test reported for this molecule. Item: O=C(O)c1ccc2[nH]cc(CCCCN3CC=C(c4ccccc4)CC3)c2c1
label 0

Record request — test call for Cc1nc(N)nc(N)n1
label 0

Look up the recorded call for CCc1cc2c(s1)-n1c(C)nnc1CN=C2c1ccccc1Cl in this test.
label 0

Assay outcome for O=C(Nc1ccccc1)N(Cc1ccc(Cl)cc1)C1CCCC1 : what was it?
label 1

What did this assay record as the result for CN(C)CCc1ccc(O)cc1 ?
label 0

Please let me know the test result on file for CSc1ccc(C(=O)C(C)(C)N2CCOCC2)cc1 .
label 1

Dear all, I need the recorded test outcome for CCS(=O)(=O)C(C)(C)S(=O)(=O)CC , thank you.
label 0

Could you kindly confirm the outcome this assay logged for N#CC(O)c1ccccc1 (stereo unspecified) ?
label 0

Which outcome did this test record for the molecule CC1CCC(=O)O1 (stereo unspecified) ?
label 0

In this assay, the call recorded for Nc1cc(Cl)ccc1O was what?
label 1

Please indicate how the test categorized N#CCCC#N .
label 0

Please state the recorded outcome for this molecule: Nc1cc2c3c(c1)C(c1ccccc1)=N[C@@H](NC(=O)c1cccnc1)C(=O)N3CC2
label 0

Hello, I am checking results. What call was entered for C=C(C)[C@@H]1CC=C(C=O)CC1 ?
label 1

# fetch the recorded call for CCCSC(=O)N(CCC)CCC here
label 0

Record request — test call for NC(=O)c1cc([N+](=O)[O-])cc([N+](=O)[O-])c1
label 0

Record request — test call for O=C1CN=C(c2ccccc2)c2cc([N+](=O)[O-])ccc2N1
label 0

Status in this test for N#Cc1c(Cl)cccc1Cl ?
label 0

Short answer needed: outcome of this test for CC(=O)CCc1ccc2c(c1)OCO2 ?
label 0

In this assay, the call recorded for CCCCc1ccc(O)cc1 was what?
label 0

Short answer needed: outcome of this test for Oc1c(Cl)cccc1Cl ?
label 0

What did this assay record as the result for O=C(Cc1ccccc1)OCc1ccccc1 ?
label 0

Can you look up the reported call for CC(=O)C(Cl)Cl for me?
label 0

What is the recorded call for this molecule in the test? C=CC1CC=CCC1 (stereo unspecified)
label 0

Record lookup: outcome of this test for C[C@]12CC[C@H]3[C@@H](CC=C4C[C@@H](O)CC[C@@]43C)[C@@H]1CC[C@@H]2O ?
label 0

So what was the verdict on CCSC(=O)N(CC)C1CCCCC1 in this test?
label 0

Test call, this molecule: Cc1ncsc1CCCl
label 0

Can you look up the reported call for CCN(Cc1ccc(Cl)nc1)/C(=C/[N+](=O)[O-])NC for me?
label 0

Hi, do you know how CCOC(=O)CP(=O)(OCC)OCC came out in this test?
label 0

What was the test verdict on CCC(Cl)[N+](=O)[O-] (stereo unspecified) ?
label 0

Call for entry CCNc1nc(NC(C)C)nc(OC)n1 :
label 0
